# key: entry, value: LD50
# assay.details: Lethal dose evaluated in NPP assay
# Format: toxicity, organism-based
# condition.details: mouse, in vivo

CCCCC1C(=O)N(c2ccccc2)N(c2ccccc2)C1=O	> 300 mg/kg
CC(C)Cc1ccc(C(C)C(=O)O)cc1 (centres undefined)	> 1000 mg/kg

Hello, please tell me recorded LD50 for this one: `COc1ccc2c(c1)c(CC(=O)O)c(C)n2C(=O)c1ccc(Cl)cc1`
160 mg/kg

Specify measured LD50 for `CS(=O)(=O)C1=C(c2ccccc2)N2CCN=C2S1` .
> 1000 mg/kg

###

# Tested on: Mus musculus
# assay.details: Compound was evaluated for the percent reduction of carrageenan induced edema in mice at dose of 25 mg/kg
# Assay type: functional
measurement.type: Reduction

CC1=CSC2=NC3CCCCC3N12 (trans isomer)	76%
CC1(O)CSC2=NC3CCCCC3N21 (centres undefined)	7%
CC1=CSC2=NC3CCCCC3N12 (cis isomer)	57%

Consider the additional compound presented here.
Look up and report measured Reduction (Mus musculus) for the following compound: `c1ccc(C2=C(c3ccccc3)N3CCN=C3S2)cc1`
14%

###

# Lookup of reported LD50 keyed by entry
# assay.details: Compound was evaluated for the toxicity in mice
# Type: organism-based
# condition.details: mouse, in vivo
Numeric only. Scale: mg/kg

Some entries whose results are on file:
CC1=C(C(=O)Nc2c(Cl)cccc2Cl)SC2=NCCN21	60
CC1(C)CN2C(c3ccccc3)=CSC2=N1	60
CC1=CSC2=NC(C)(C)CN12	60
CC1=C(C(=O)Nc2ccccc2F)SC2=NCCN21	100
CC1=C(C(=O)Nc2c(Br)cccc2Br)SC2=NCCN21	40

Give a short answer stating reported LD50 for `CC1=C(C(=O)Nc2c(C)cc(C)cc2C)SC2=NCCN21` .
60

For the compound `Cc1cc(C)c(NC(=O)C2=C(c3ccccc3)N3CCN=C3S2)c(C)c1` , give its measured LD50 value.
80

Fill in LD50 for record CC1=C(C(=O)N2C(C)CCC2C)SC2=NCCN21 (stereo not given)
240

Assign LD50 to the following record: `CC1=C(C(=O)Nc2c(C)cc(C)cc2C)SC2=NC(C)(C)CN21`
60
